- System: LXRa homodimer (NR concentration 270 nM)
- Protocol text: PBM binding z-score (relative to random genomic background probes); higher = stronger binding; sequences stand for … in GC…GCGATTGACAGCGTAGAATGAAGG
Measurement type: PBM binding z-score

1) ATCTCTAGGTAAGACTCAGTTCAATGAAGAACGC ... 1.15
2) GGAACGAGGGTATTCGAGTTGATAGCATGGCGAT ... -0.446
3) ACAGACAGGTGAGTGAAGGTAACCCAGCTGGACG ... -0.585
4) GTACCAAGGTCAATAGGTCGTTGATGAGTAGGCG ... 0.864
5) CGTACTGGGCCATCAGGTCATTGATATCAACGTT ... 0.948
6) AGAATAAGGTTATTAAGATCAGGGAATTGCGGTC ... 0.352
7) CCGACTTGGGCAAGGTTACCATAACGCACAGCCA ... -0.339
8) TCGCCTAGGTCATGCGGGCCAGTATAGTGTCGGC ... 0.228
9) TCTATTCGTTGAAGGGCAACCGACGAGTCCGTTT ... 0.235
10) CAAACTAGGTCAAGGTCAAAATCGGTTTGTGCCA ... 3.14
11) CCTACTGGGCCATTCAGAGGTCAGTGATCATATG ... 2.35
12) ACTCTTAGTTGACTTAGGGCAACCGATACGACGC ... 0.285
13) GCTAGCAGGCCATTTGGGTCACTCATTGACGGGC ... -0.528
14) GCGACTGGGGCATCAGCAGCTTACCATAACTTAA ... -0.417
15) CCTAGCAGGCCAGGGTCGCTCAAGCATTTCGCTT ... -0.612
16) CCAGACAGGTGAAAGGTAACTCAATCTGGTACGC ... -0.0709
17) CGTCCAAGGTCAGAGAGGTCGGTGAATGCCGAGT ... 0.408
18) TCATAAAGGTAATACAGGTGAAAGTCGGCATCTA ... 0.378
19) CTCGAAACGTCGTGCTCAGGTGAGTATACCAAAC ... -0.383
20) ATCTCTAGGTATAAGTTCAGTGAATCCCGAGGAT ... 0.507
21) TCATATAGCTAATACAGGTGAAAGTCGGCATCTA ... 0.0705
22) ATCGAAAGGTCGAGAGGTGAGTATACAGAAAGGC ... -0.0292
23) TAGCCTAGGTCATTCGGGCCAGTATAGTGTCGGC ... 1.53
24) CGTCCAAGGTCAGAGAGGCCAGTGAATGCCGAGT ... 0.144
25) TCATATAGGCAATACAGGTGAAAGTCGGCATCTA ... 0.422
26) AGAATGAGGTTAAGATCACGGAAACAGAATACAT ... 0.0665

----------
- Tested on: PPARg:RXRa (NR concentration 180 nM, RXRa partner concentration 90 nM)
- Protocol text: PBM binding z-score (relative to random genomic background probes); higher = stronger binding; sequences stand for … in GC…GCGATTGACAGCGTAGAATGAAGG
Overview of recorded PBM binding z-score for various sequences
Measurement type: PBM binding z-score

1) ACTATTAGTTGACTTAGGGCTACCGATACGACGC ... 0.862
2) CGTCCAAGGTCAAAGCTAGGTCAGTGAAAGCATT ... 4.63
3) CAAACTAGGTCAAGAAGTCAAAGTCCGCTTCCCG ... 7.74
4) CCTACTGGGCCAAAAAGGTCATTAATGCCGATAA ... 2.98
5) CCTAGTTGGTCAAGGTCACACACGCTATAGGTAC ... 3.35
6) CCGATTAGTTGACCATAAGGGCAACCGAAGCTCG ... 0.357

----------
- System: THRa homodimer (NR concentration 90 nM)
- Protocol text: PBM binding z-score (relative to random genomic background probes); higher = stronger binding; sequences stand for … in GC…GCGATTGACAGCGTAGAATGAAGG
PBM binding z-score for assorted sequences
Measurement type: PBM binding z-score

1) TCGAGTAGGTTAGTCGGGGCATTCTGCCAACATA ... -0.375
2) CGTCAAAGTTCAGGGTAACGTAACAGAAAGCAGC ... 0.495
3) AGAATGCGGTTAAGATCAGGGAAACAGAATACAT ... -0.363
4) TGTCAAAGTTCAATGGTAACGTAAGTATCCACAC ... -0.627
5) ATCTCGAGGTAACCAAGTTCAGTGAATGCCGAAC ... 0.867
6) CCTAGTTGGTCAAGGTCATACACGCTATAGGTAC ... 3.75
7) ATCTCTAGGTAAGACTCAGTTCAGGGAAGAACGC ... 0.955
8) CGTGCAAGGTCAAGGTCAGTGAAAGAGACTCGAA ... 3.18
9) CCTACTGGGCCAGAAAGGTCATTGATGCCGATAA ... 0.378
10) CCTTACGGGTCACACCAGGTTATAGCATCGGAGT ... 0.963
11) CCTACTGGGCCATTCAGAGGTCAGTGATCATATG ... 0.651
12) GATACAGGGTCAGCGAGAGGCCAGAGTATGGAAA ... 0.369

----------
- System: LXRb homodimer (NR concentration 270 nM)
- Protocol text: PBM binding z-score (relative to random genomic background probes); higher = stronger binding; sequences stand for … in GC…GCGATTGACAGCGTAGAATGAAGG
Measured PBM binding z-score by item
Measurement type: PBM binding z-score

1. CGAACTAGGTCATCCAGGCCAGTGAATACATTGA ... -0.0916
2. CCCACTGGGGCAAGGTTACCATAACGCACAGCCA ... -0.882
3. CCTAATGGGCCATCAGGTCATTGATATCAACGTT ... 0.197
4. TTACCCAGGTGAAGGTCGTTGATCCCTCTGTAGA ... -0.632
5. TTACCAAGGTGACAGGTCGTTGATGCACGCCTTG ... -0.664
6. CTCGACAGGTCGGTTGAGGTGAGTATACGGATAA ... -0.791
7. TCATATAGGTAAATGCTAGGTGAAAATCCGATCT ... 0.611
8. TCTGCTAGGTCAACGATGGTCTGCTAATCTGCTA ... 0.041
9. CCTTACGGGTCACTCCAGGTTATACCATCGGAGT ... 0.431
10. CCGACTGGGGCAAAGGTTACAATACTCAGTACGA ... -0.618
11. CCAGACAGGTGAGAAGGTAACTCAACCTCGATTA ... -0.388
12. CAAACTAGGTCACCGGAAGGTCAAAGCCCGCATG ... 1.45
13. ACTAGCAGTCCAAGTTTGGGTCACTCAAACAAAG ... -0.524
14. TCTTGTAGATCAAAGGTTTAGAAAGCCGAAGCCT ... -0.505
15. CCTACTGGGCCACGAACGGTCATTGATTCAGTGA ... -0.838
16. GGAACGAGGGCATTCGAGTTGATACCATGGCGAT ... -0.357
17. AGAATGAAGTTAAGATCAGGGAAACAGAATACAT ... -0.44
18. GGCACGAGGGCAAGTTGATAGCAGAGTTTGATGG ... -0.697
19. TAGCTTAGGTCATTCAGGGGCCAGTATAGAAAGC ... 1.67
20. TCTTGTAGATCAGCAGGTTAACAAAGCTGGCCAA ... -0.6
21. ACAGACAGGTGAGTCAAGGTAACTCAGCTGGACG ... -0.551
22. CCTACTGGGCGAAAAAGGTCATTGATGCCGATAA ... -0.182
23. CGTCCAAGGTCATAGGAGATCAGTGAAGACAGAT ... 0.511
24. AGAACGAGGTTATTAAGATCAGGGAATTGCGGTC ... -0.115
25. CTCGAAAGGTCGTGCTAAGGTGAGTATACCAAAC ... 0.12
26. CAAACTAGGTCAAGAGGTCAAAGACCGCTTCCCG ... 1.47

----------
- Tested on: LXRb:RXRa (NR concentration 270 nM, RXRa partner concentration 90 nM)
- Protocol text: PBM binding z-score (relative to random genomic background probes); higher = stronger binding; sequences stand for … in GC…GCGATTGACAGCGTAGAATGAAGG
Tag: met if measured PBM binding z-score is not below 1, not met if it is.

1. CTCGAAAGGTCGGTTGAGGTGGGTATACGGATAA ... met
2. CCTACTGGGCCGAAGGTCATTGATTCCAATGCTC ... met
3. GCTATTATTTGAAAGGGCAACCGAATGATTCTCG ... not met
4. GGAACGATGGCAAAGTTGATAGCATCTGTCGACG ... not met
5. CCTAGTTGGTCAGGAGGTCATACACCGGATATGA ... met
